Hey, just so you know, these numbers are from ChEMBL document CHEMBL4229469.

target: DNA repair protein REV1 (Homo sapiens, UniProt Q9UBZ9); experiment: Displacement of FAM-labelled polkappa-RIR peptide from recombinant human C-terminal Rev1 (1158 to 1251 residues) expressed in Escherichia coli BL21(DE3) after 1 hr by fluorescence polarization assay
Sequence (Q9UBZ9 whole entry, the tested form may be a part): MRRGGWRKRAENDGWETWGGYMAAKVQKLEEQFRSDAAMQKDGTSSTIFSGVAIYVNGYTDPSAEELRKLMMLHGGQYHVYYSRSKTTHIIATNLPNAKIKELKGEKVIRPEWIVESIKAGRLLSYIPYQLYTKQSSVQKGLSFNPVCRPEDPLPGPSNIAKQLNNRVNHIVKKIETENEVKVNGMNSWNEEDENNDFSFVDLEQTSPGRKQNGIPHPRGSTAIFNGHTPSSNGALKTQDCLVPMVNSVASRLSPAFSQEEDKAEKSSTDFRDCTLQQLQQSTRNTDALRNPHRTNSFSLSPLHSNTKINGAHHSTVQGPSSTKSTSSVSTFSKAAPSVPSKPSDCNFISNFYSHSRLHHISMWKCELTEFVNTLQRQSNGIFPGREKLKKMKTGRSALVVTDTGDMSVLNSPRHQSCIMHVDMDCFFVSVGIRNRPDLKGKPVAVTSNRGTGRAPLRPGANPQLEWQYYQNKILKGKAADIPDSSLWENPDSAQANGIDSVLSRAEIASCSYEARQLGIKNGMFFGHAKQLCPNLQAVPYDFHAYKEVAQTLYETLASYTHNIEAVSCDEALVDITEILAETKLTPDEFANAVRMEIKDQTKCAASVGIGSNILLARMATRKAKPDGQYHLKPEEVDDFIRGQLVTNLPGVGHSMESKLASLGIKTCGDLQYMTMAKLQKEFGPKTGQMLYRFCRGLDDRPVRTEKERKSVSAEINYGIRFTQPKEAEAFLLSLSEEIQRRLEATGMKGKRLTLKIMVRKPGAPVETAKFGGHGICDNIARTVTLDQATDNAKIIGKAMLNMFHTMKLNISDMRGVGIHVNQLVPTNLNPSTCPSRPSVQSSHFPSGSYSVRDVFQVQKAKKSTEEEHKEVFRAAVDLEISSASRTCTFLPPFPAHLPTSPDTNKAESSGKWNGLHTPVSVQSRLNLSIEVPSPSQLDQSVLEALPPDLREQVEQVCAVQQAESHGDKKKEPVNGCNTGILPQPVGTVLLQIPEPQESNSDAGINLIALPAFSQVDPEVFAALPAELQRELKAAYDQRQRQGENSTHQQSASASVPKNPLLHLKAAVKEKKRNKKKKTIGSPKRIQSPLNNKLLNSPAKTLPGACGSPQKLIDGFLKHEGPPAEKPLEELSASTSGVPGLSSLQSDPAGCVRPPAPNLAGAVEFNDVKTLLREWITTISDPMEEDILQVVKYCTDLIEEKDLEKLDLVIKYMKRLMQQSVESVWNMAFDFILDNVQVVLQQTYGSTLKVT
QUANTITY_KIND: IC50 (µM)

>>> value("CCn1c2ccccc2c2cc(NC(=O)N3CCC(C(C)=O)CC3)ccc21")
4.6
>>> value("CC(C)(C)C(=O)N1CCN(c2ccc(NC(=O)c3cccnc3)cc2Cl)CC1")
12.3
>>> value("CCCC1CCc2c(sc(NC(=O)C3CCN(C(C)=O)CC3)c2C(N)=O)C1 (stereo not drawn)")
4.9
